Quick list: solubility per entry.
Test: Solubility of the compound in FaSSIF at pH 6.5 incubated for 4 to 24 hrs by LC/MS analysis
Assay type: physicochemical
Assay Setup: time 4-24 hrs
Readout Name: solubility (µM)

* CS(=O)(=O)NC(=O)c1cnc(Nc2c3c(cc4c2CCC4)CCC3)o1 | 475
* O=C(O)c1cnc(Nc2c3c(cc4c2CCC4)CCC3)o1 | 442
* NC(=O)c1cnc(Nc2c3c(cc4c2CCC4)CCC3)o1 | 45.6

* * *

Test: Solubility of the compound in FaSSIF at pH 6.5 incubated for 4 to 24 hrs by LC/MS analysis
Assay type: physicochemical
Assay Setup: time 4-24 hrs
Short version: solubility at least 40 µM is class 1, less is class 0.

* CN1CCN(C(=O)c2cnc(Nc3c4c(cc5c3CCC5)CCC4)o2)S1(=O)=O | class 0
* CNC(=O)c1cnc(Nc2c3c(cc4c2CCC4)CCC3)o1 | class 1
* CCOC(=O)c1cnc(Nc2c3c(cc4c2CCC4)CCC3)o1 | class 0
* Cc1ccc(C(F)(F)F)cc1Nc1nc(C(=O)NS(=O)(=O)N2CCCOCC2)co1 | class 1
* CN(C)S(=O)(=O)NC(=O)c1coc(Nc2c3c(cc4c2CCC4)CCC3)n1 | class 1

* * *

System Under Test: NACHT, LRR and PYD domains-containing protein 3 (Homo sapiens, UniProt Q96P20)
Sequence (Q96P20 whole entry, the tested form may be a part): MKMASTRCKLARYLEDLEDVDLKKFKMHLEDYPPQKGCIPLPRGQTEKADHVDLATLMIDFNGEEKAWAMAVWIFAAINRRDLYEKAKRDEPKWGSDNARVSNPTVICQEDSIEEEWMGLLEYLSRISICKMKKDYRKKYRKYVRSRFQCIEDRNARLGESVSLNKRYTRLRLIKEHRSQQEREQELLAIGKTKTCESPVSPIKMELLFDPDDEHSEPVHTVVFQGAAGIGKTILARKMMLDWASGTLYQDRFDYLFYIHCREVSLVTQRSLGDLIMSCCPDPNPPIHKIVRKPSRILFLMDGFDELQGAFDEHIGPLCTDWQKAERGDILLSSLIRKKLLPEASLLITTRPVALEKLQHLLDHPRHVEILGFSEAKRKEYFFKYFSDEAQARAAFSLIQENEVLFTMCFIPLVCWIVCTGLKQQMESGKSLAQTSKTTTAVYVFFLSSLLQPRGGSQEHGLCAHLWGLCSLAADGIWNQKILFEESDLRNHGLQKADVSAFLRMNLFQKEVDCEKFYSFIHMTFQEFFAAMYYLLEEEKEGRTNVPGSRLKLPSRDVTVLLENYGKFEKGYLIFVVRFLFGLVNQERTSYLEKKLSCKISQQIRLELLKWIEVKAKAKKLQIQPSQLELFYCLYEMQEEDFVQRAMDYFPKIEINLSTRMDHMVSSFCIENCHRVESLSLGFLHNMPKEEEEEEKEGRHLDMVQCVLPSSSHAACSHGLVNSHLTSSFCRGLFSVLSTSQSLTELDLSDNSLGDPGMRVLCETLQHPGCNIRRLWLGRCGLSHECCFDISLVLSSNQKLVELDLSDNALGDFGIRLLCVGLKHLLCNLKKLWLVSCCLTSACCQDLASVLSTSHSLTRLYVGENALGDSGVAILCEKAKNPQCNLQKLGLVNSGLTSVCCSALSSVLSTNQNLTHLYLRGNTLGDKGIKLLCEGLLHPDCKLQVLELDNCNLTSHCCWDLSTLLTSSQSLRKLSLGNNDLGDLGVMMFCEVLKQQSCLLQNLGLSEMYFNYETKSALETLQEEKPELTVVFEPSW
Test: Inhibition of NLRP3 in LPS/nigericin-induced human THP-1 cells assessed as inhibition of IL-1beta production pretreated with LPS for 3 hrs followed by incubation with compound for 15 mins and later stimulated with nigericin for 90 mins by AlphaLISA assay
Type: cell-based
Readout Name: IC50

* CCOC(=O)c1cnc(Nc2c3c(cc4c2CCC4)CCC3)s1 | > 30 µM
* COC(=O)CN1CC(=O)N(c2c3c(cc4c2CCC4)CCC3)C1=O | > 30 µM
* COC(=O)[C@@H]1CCCN1C(=O)Nc1c2c(cc3c1CCC3)CCC2 | > 10 µM
* COC(=O)[C@H]1CCCN1C(=O)Nc1c2c(cc3c1CCC3)CCC2 | > 10 µM
* COC(=O)c1ccnc(Nc2c3c(cc4c2CCC4)CCC3)n1 | > 30 µM
* CNC(=O)c1cnc(Nc2c3c(cc4c2CCC4)CCC3)o1 | > 30 µM
* NC(=O)c1cnc(Nc2c3c(cc4c2CCC4)CCC3)o1 | > 30 µM
* CCOC(=O)c1cnc(Nc2c3c(cc4c2CCC4)CCC3)[nH]1 | > 30 µM
